Tested on: C. elegans
Assay: microbe, parasite or virus in culture
Conditions: Caenorhabditis elegans, 24 h, read-out: Percentage of motility inhibition 24 h, Table S2, C. elegans SS assay, 110 μM, 24 h, averages of 4 data points
Assign class by inhibition at 110 µM: not lower than 9% means fulfilled; lower than 9% means not fulfilled.

Consider the following illustrative entries.
compound: C[C@@H]1O[C@@H](OC[C@H]2O[C@@H](Oc3c(-c4ccc(O)c(O)c4)oc4cc(O)cc(O)c4c3=O)[C@H](O)[C@@H](O)[C@@H]2O)[C@H](O)[C@H](O)[C@H]1O
cat: not fulfilled

compound: CC12CC3OC4O[C@H](CO)[C@@H](O)[C@H](O)[C@H]4OC34CC1C4(COC(=O)c1ccccc1)C(=O)O2 (stereo partly shown)
cat: fulfilled

compound: Nc1ncnc2c1ncn2[C@@H]1O[C@H](CO)[C@@H](O)[C@@H]1O
cat: not fulfilled

Q) Is reported inhibition at 110 µM greater than or equal to 9% here: `C[C@]1(Cn2ccnn2)[C@H](C(=O)O)N2C(=O)C[C@H]2S1(=O)=O`
A) fulfilled

Q) Is reported inhibition at 110 µM greater than or equal to 9% here: `O=c1cc(-c2ccc(O)c(O)c2)oc2cc(O)c([C@@H]3O[C@H](CO)[C@@H](O)[C@H](O)[C@H]3O)c(O)c12`
A) fulfilled

Q) Is reported inhibition at 110 µM greater than or equal to 9% here: `O=C(CCc1ccc(O)cc1)c1c(O)cc(O)cc1O[C@@H]1O[C@H](CO)[C@@H](O)[C@H](O)[C@H]1O`
A) not fulfilled
